test: LAP4-GFP expression modulators in yeast, confirmation, cell-based, cherry picks, flow cytometry, mother/daughter gates (AID 2271);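 further: ratio of sample to DMSO plate mean so 100% equals DMSO level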; conditions: S. cerevisiae LAP4-GFP strain, 3 h, measured here: daughter cell gate response, at 10 µM, stronger effect = higher value, 100 means same as DMSO control
reported.metric: GFP response relative to DMSO (%)
Just the number in %, nothing appended.

A selection of reference data follows.
[[record]]
compound = "O=C(NCCO)c1c(O)c2cccc3c2n(c1=O)CC3"
result = 94.1

[[record]]
compound = "CC(=O)NC1(C(F)(F)F)C(=O)Nc2c1c(=O)[nH]c(=O)n2CCc1ccccc1 (stereo unspecified)"
result = 97.5

[[record]]
compound = "COc1ccc(-c2cc(C(F)(F)F)nc(N3CCOCC3)n2)cc1OC"
result = 101

[[record]]
compound = "O=C(c1ccc([N+](=O)[O-])o1)N(Cc1nnc(-c2ccccc2Cl)o1)C1CC1"
result = 99.1

[[record]]
compound = "CCN=C(NCC)SC1CC(=O)N(c2cccc(OCC)c2)C1=O (stereo unspecified)"
result = 99.2

[[record]]
compound = "O=C(NCc1cccnc1)c1cnc2n(c1=O)CCS2"
result = 104


**Q:** // query GFP response relative to DMSO value for entry C#CCSc1nncn1C(=O)/C=C/c1ccccc1
**A:** 142

**Q:** Return reported GFP response relative to DMSO; argument: Clc1ccc(N=c2ssnc2Cl)cc1
**A:** 139

**Q:** Recorded GFP response relative to DMSO of O=C(NCc1ccccn1)c1cc(-c2ccc(Cl)cc2)oc1C(F)(F)F , please.
**A:** 106

**Q:** What does the data say about its GFP response relative to DMSO? Entry: C=CCNC(=O)/C(C#N)=C/c1c(N(Cc2ccccc2)Cc2ccccc2)nc2ccccn2c1=O
**A:** 99.7

**Q:** Returns the measured GFP response relative to DMSO for the input compound. Input: c1ccc(Cn2ncc3ccccc32)cc1
**A:** 92.2

----------
# GFP response vs DMSO listing for each entry below
assay: RPL19A-GFP modulators, yeast TOR pathway, confirmation, cell-based, S. cerevisiae, flow cytometry, cherry picks, mother/daughter gates (AID 2270); details: S. cerevisiae RPL19A-GFP strain, 3 h, at 10 µM, stronger effect = lower value, 100 = same GFP as DMSO wells
// return numeric value only (unit: %, not printed)

// worked examples, GFP response vs DMSO included
[[record]]
compound = "Cc1ccc(N2C(=O)C3C4C=CC(CNC(=S)Nc5cccc(Cl)c5)(O4)C3C2=O)cc1 (stereo not given)"
result = 101

[[record]]
compound = "CC(=O)[C@@]1(O)CC[C@H]2[C@@H]3CCC4=CC(=O)CC[C@]4(C)[C@H]3CC[C@@]21C"
result = 104

[[record]]
compound = "Cn1c(=O)c(C(=O)Nc2ncccc2O)c(O)c2ccccc21"
result = 95.3

[[record]]
compound = "O=C(O)Cc1sc(Nc2ccc(F)cc2)nc1-c1cccs1"
result = 97.6

[[record]]
compound = "Cc1nnc(NC(=O)c2nc(S(=O)(=O)Cc3ccccc3)ncc2Cl)s1"
result = 95.1

[[record]]
compound = "CCOC(=O)C1CCCN(c2c(C(=O)c3ccccc3)cnc3ccccc23)C1 (stereo not given)"
result = 99.3


**Q:** What does the data say about its GFP response vs DMSO? Entry: Cc1cccn2c(=O)c(/C=C(\C#N)C(=O)NCc3ccco3)c(N3CCCC(C)C3)nc12 (stereo not given)
**A:** 99.8
